# System: SK-OV-3 ovarian
# run.description: NCI-60 one-dose screen, 48 h
# study.conditions: 10 µM unless noted
The panel holds about 83,000 compounds, 20% with a hit somewhere; the sample as a whole holds those more often. Activity calls are given as the source filed them. Rule for the calls: active = growth percent below 10; inactive = the rest.
# valid calls are yes (1) for active, no (0) for inactive; nothing else

Below, 3 compounds whose answers are already recorded.
CCC1CCc2nc3sc(C(=O)Nc4cccc(C)c4)c(N)c3cc2C1 (configuration not stated): no (0)
COc1cc(C2CC(c3c(C)[n+]([O-])c4ccccc4[n+]3[O-])=NN2)cc(OC)c1OC (configuration not stated): no (0)
O=C(c1c[nH]c2ccccc12)C(Sc1nc2ccccc2c(=O)[nH]1)c1ccccc1 (configuration not stated): no (0)

Query string: What did the test return for `Cc1ccc2c(c1)C(=O)C(c1c(-c3[nH]c(=O)c4ccc(C)cc4c3O)c(O)c3ccccc3c1O)=NC2=O` ?
Result string: no (0)

Query string: Also need `Cc1cc(-c2ccccc2)c(C)n1Cc1ccc(Cl)cc1` , thanks.
Result string: no (0)

Query string: Also need `CCOC(=O)c1cc(/C(=N\O)c2cc(OC)c(OC)c(OC)c2)n2c(C)cccc12` , thanks.
Result string: no (0)

Query string: Also need `CCC(=O)Nc1ccccc1C#C/C=C\C#Cc1ccccc1SC` , thanks.
Result string: no (0)

Query string: Also need `COc1ccc(Cl)cc1NC(N)=S` , thanks.
Result string: no (0)

Query string: Also need `NS(=O)(=O)c1ccc(CN2C(=O)c3cccc4cccc(c34)C2=O)cc1` , thanks.
Result string: no (0)

Query string: Also need `CCCCCc1c(C)[nH]c(/C=c2\[nH]/c(=C3/C=c4ccccc4=N3)cc2OC)c1C` , thanks.
Result string: yes (1)

###

# Tested on: UO-31 renal
# run.description: NCI-60 one-dose screen, 48 h (100 = growth as untreated, 0 = no growth, -100 = all killed)
# study.conditions: 10 µM unless noted
Compounds without any hit were thinned out: in the full panel of roughly 83,000, 20% have a hit.
Please respond with reported growth for every item in the list.
Numbers only, in %.

Worked examples follow.
Cc1ccccc1C(=O)c1ccccc1C(=O)O: 89.7
CC(C)C[C@H](NC(=O)[C@H](Cc1ccccc1)n1ccc(N2CCCCC2)cc1=O)B(O)O: -37.2
CC(C)(C)c1cn2cccc(C(=O)N3CCN(CC(=O)Nc4ccc(Cl)cc4C(=O)c4ccccc4Cl)CC3)c2n1: 47
CC(C)N(Cc1ccc(CN(C(=O)CCl)C(C)C)cc1)C(=O)CCl: -83.6
O=C(CCCn1c2c(sc3ccccc32)c(=O)n2nnc(-c3ccccc3)c12)NCCc1cnc[nH]1: -90.3

Value sought for every listed compound: growth.
1. COc1ccc(-n2c(C)cc(-c3ccccc3)c2C)cc1
2. C=CCN=C1NC(=O)/C(=C/c2cc(C(C)(C)C)c(O)c(C(C)(C)C)c2)S1
3. C/C(=C\c1csc(C)n1)[C@@H]1C[C@@H]2O[C@]2(C)CCC[C@H](C)[C@H](O)[C@@H](C)C(=O)C(C)(C)[C@@H](O)CC(=O)N1
4. CCC(c1ccc(OC)cc1)C(CC)c1ccc(OCC[N+](C)(C)C)cc1 (stereo not given)

Result string:
[52.3, 67, -85.7, 82.2]

Value sought for every listed compound: growth.
1. O=C(Nc1ccc(I)cc1)c1cc([N+](=O)[O-])ccc1O
2. O=C(Nc1cc(C(F)(F)F)cc(C(F)(F)F)c1)Nc1ccc(OCc2nnc(-c3ccc(Cl)cc3)o2)c(F)c1
3. COc1ccccc1OCC(=O)Nc1sc2c(c1C(N)=O)CCC2

Result string:
22.5
-2.51
26.5

###

# Test system: ACHN renal
# run.description: NCI-60 one-dose screen, 48 h (100 = growth as untreated, 0 = no growth, -100 = all killed)
# study.conditions: 10 µM unless noted
The panel holds about 83,000 compounds, 20% with a hit somewhere; the sample as a whole holds those more often.
One threshold, 50%, splits the recorded growth values: lower ones are yes (1), equal or higher ones are no (0).

Cc1nc(Nc2cccnc2)sc1C(=O)/C=C/c1ccc(F)cc1: yes (1)
CCC#CC[C@H]1C/C=C2/C(=O)C=C[C@@H]2C/C=C\CCCC(=O)O1: yes (1)
c1ccc2nc(-c3ccc4ccccc4n3)ccc2c1: no (0)
Clc1cccc(Cl)c1Cn1c(-c2cncs2)nc2ccccc21: no (0)
CCC1CCc2nc3sc(C(=O)Nc4cccc(C)c4)c(N)c3cc2C1 (configuration not stated): no (0)
COc1ccc(OC)c(/C=C2\Oc3cc(OCCN4CCCC4)ccc3C2=O)c1: no (0)
Nc1c(C(=O)Nc2ccccc2)sc2nc3c(cc12)CN(Cc1ccccc1)CC3: yes (1)
O=S(=O)(NCCCNc1cc(-c2cn(-c3ccccc3)nc2-c2cccc(O)c2)ccn1)c1ccc(Cl)cc1: yes (1)

Query string: growth strictly < 50% for this compound? `CCC(=O)Oc1cc(/C=C/C(=O)O[C@H]2C[C@H]3CN4CCc5c([nH]c6cc(OC)ccc56)[C@@H]4C[C@@H]3[C@@H](C(=O)OC)[C@@H]2OC)ccc1OC`
Result string: yes (1)

Query string: Also need `C=C1C(=O)O[C@H]2[C@H]1CC/C(Cn1cc(-c3ccc(N)cc3)nn1)=C\CC[C@@]1(C)O[C@@H]21` , thanks.
Result string: yes (1)

Query string: Also need `COc1cc(C(=O)CCCl)ccc1O` , thanks.
Result string: no (0)

Query string: Also need O=C(c1c[nH]c2ccccc12)C(Sc1nc2ccccc2c(=O)[nH]1)c1ccccc1 (configuration not stated) , thanks.
Result string: no (0)

###

# System: HCT-116 colon
# run.description: NCI-60 one-dose screen, 48 h (100 = growth as untreated, 0 = no growth, -100 = all killed)
# study.conditions: 10 µM unless noted
# Procedure: Growth inhibition of the HCT-116 human tumor cell line is measured as a screen for anti-cancer activity. Cells are grown in 96 well plates and exposed to the test compound for 48 hours. Compounds are tested at a single concentration, which is 10^-5 M for most compounds. The reported endpoint is percent growth (GI% or GIPRCNT), where numbers from 0 - 100% represent growth inhibition, and numbers from -100% - 0 represent cell death. For example, a value of 40 represents 60% growth inhibition. […]
Compounds without any hit were thinned out: in the full panel of roughly 83,000, 20% have a hit.
Please respond with reported growth for every item in the list.
Answers are plain numbers, in %.

Worked examples follow.
CC(C(=O)n1cc(-c2ccccc2)c(-c2ccccc2)c1)c1ccccc1 (stereo unspecified): 99.8
COc1ccc(/C=C/C(=O)c2ccc(B(O)O)cc2)cc1O: 1.46
Cc1sc2nc(CSc3nnc(-c4ccco4)o3)[nH]c(=O)c2c1C: 115
O=C1OC(c2ccccc2)=N/C1=C\c1ccc([N+](=O)[O-])cc1: 97.8
CC1(C)OC2COC3(C(=O)O)OC(C)(C)OC3C2O1 (stereo unspecified): 114

Query string: I'd like to know its growth. The compound in question is CC(=O)C1CCC(C)=CC1=O (stereo unspecified)
Result string: 103

###

# Tested on: T-47D breast
# run.description: NCI-60 one-dose screen, 48 h (100 = growth as untreated, 0 = no growth, -100 = all killed)
# study.conditions: 10 µM unless noted
# Method: Growth inhibition of the T-47D human tumor cell line is measured as a screen for anti-cancer activity. Cells are grown in 96 well plates and exposed to the test compound for 48 hours. Compounds are tested at a single concentration, which is 10^-5 M for most compounds. The reported endpoint is percent growth (GI% or GIPRCNT), where numbers from 0 - 100% represent growth inhibition, and numbers from -100% - 0 represent cell death. For example, a value of 40 represents 60% growth inhibition. […]
About 83,000 compounds went through this panel and 20% of them were active in at least one assay; those are over-represented in the sample as a whole.
readout.kind: growth (%)
Answers are plain numbers, in %.

Worked examples follow.
COc1cccc2nc(Nc3ccc(NC(=O)c4ccc5ncccc5c4)cc3)ccc12: 68
COc1cc(/C=C2\CCCC3=C2N=C2SC(C)=NN2C3c2cc(OC)c(OC)c(OC)c2)cc(OC)c1OC (stereo unspecified): 37.6
O=S(=O)(O)CCl: 97.2
COc1cc2nc(Cl)nc(NCCO)c2cc1OC: 101
COc1ccc(C2SCC(=O)N2NC(=O)c2ccc(NC(=O)c3ccccn3)cc2)cc1OC (stereo unspecified): 97.8

Query string: Find the measured growth: item CC(C)C(C(=O)CCN(C)C)c1ccc(Cl)cc1 (stereo unspecified) , target or system T-47D breast.
Result string: 82.9

###

Please respond with reported growth for every item in the list.
# System: NCI/ADR-RES ovarian
# run.description: NCI-60 one-dose screen, 48 h (100 = growth as untreated, 0 = no growth, -100 = all killed)
# study.conditions: 10 µM unless noted
The panel holds about 83,000 compounds, 20% with a hit somewhere; the sample as a whole holds those more often.
Give bare numbers, in %.

Worked examples follow.
Cc1cc(NC(=O)COC(=O)c2sc3cc(F)ccc3c2Cl)no1: 107
COc1ccc(NC(=S)/N=c2\oc3c(OC)cccc3cc2-c2cc3ccccc3[nH]2)cc1: 56.7
N#Cc1ncc(-c2ccc(F)c(F)c2F)c(NC2CCCCCC2)n1: 83.8

// next item, growth requested
Query string: I'd like to know its growth. The compound in question is `CC(C)(C)OC(=O)N[C@@H](Cc1ccccc1)C(=O)N(Cc1ccccc1)C1(C(=O)NCc2ccccc2)CCN(Cc2ccccc2)CC1`
Result string: 12.1
